Hi there, I'd appreciate the recorded TGI for every entry that follows.
# measurement-protocol: Growth inhibition of human NCI60 cells after 48 hrs by SRB assay
# Type: functional
# test-settings: NCI60, 48 h
Express it in nM; write the number only.

Record request: TGI value, item COc1cc2c(cc1OC)C(=O)N1C=C(c3ccc4ccccc4c3)C[C@H]1[C@H](S(=O)(=O)O)N2
20

Record request: TGI value, item COc1cc2c(cc1OC)C(=O)N1C=C(c3ccc(C(=O)O)cc3)C[C@H]1C=N2
23400

Record request: TGI value, item COc1cc2c(cc1OC)C(=O)N1C=C(c3cc4ccccc4s3)C[C@H]1C=N2
90

Record request: TGI value, item COc1cc2c(cc1OC)C(=O)N1C=C(/C=C/c3ccccc3)C[C@H]1C=N2
20

Record request: TGI value, item C=Cc1ccc(C2=CN3C(=O)c4cc(OC)c(OC)cc4N=C[C@@H]3C2)cc1
10

Record request: TGI value, item COc1ccc(C2=CN3C(=O)c4cc(OC)c(OC)cc4N=C[C@@H]3C2)cc1
150

Record request: TGI value, item COc1cccc(C2=CN3C(=O)c4cc(OC)c(OC)cc4N[C@@H](S(=O)(=O)O)[C@@H]3C2)c1
70

Record request: TGI value, item COc1cc2c(cc1OC)C(=O)N1C=C(/C=C/c3ccc(C(F)(F)F)cc3)C[C@H]1C=N2
20

Record request: TGI value, item COc1cc2c(cc1OC)C(=O)N1C=C(/C=C/c3ccc(Cl)cc3)C[C@H]1C=N2
20

Record request: TGI value, item CCc1ccc(C2=CN3C(=O)c4cc(OC)c(OC)cc4N=C[C@@H]3C2)cc1
70

Record request: TGI value, item COc1cc2c(cc1OC)C(=O)N1C=C(c3cccc4c3sc3ccccc34)C[C@H]1C=N2
220

Record request: TGI value, item COc1cc2c(cc1OC)C(=O)N1C=C(c3ccc(C(N)=O)cc3)C[C@H]1C=N2
460

Record request: TGI value, item COc1cc2c(cc1OC)C(=O)N1C=C(c3ccc(C(C)C)cc3)C[C@H]1C=N2
60

Record request: TGI value, item COc1cc2c(cc1OC)C(=O)N1C=C(c3cccc4ccccc34)C[C@H]1C=N2
950

Record request: TGI value, item COc1cc2c(cc1OC)C(=O)N1C=C(c3ccc(C(=O)NCCCN(C)C)cc3)C[C@H]1C=N2
830

Record request: TGI value, item COc1cc2c(cc1OC)C(=O)N1C=C(c3cccc(F)c3)C[C@H]1C=N2
50

Record request: TGI value, item C/C=C/C1=CN2C(=O)c3cc(O[C@@H]4O[C@@H](C)[C@H](NC)[C@@](C)(O)[C@H]4O)c(C)c(O)c3N[C@H](O)[C@@H]2C1 [SIBIROMYCIN]
850

Record request: TGI value, item COc1cc2c(cc1OC)C(=O)N1C=C(c3cccc(C(=O)NCCCN(C)C)c3)C[C@H]1C=N2
850

Record request: TGI value, item COc1cc2c(cc1OC)C(=O)N1C=C(/C=C/c3ccc(F)cc3)C[C@H]1C=N2
10

Record request: TGI value, item COc1cc2c(cc1OC)C(=O)N1C=C(c3ccc(Oc4ccccc4)cc3)C[C@H]1C=N2
30

Record request: TGI value, item COc1cc2c(cc1OC)C(=O)N1C=C(c3cccc(C(=O)NCCN(C)C)c3)C[C@H]1C=N2
1860

Record request: TGI value, item COc1cc2c(cc1OC)C(=O)N1C=C(c3cccc(C(F)(F)F)c3)C[C@H]1C=N2
30

Record request: TGI value, item COc1cc2c(cc1OC)C(=O)N1C=C(c3ccc(OCCCN(C)C)cn3)C[C@H]1C=N2
60

Record request: TGI value, item COC(=O)c1cccc(C2=CN3C(=O)c4cc(OC)c(OC)cc4N=C[C@@H]3C2)c1
40

Record request: TGI value, item COc1cc2c(cc1OC)C(=O)N1C=C(c3ccc(C(=O)NCCO)cc3)C[C@H]1C=N2
1860

Record request: TGI value, item COc1cc2c(cc1OC)C(=O)N1C=C(c3ccc(C(C)(C)C)cc3)C[C@H]1[C@H](S(=O)(=O)O)N2
50

Record request: TGI value, item COc1cc2c(cc1OC)C(=O)N1C=C(c3ccc(F)cc3)C[C@H]1[C@H](S(=O)(=O)O)N2
40

Record request: TGI value, item COc1cc2c(cc1OC)C(=O)N1C=C(c3c(F)cccc3F)C[C@H]1C=N2
330

Record request: TGI value, item COc1cc2c(cc1OC)C(=O)N1C=C(c3cccc4c3oc3ccccc34)C[C@H]1C=N2
210

Record request: TGI value, item COc1cc2c(cc1OC)C(=O)N1C=C(c3ccc4c(c3)OCO4)C[C@H]1C=N2
30

Record request: TGI value, item COc1cc2c(cc1OC)C(=O)N1C=C(c3cccc(C)c3)C[C@H]1C=N2
70

Record request: TGI value, item COc1cc2c(cc1OC)C(=O)N1C=C(c3ccc(N)cc3)C[C@H]1C=N2
30

Record request: TGI value, item COc1cc2c(cc1OC)C(=O)N1C=C(c3cccc([N+](=O)[O-])c3)C[C@H]1C=N2
50
